Listed here: items and their measured pIC50.
assayed target: mineralocorticoid receptor (Homo sapiens)
Sequence (P08235 whole entry): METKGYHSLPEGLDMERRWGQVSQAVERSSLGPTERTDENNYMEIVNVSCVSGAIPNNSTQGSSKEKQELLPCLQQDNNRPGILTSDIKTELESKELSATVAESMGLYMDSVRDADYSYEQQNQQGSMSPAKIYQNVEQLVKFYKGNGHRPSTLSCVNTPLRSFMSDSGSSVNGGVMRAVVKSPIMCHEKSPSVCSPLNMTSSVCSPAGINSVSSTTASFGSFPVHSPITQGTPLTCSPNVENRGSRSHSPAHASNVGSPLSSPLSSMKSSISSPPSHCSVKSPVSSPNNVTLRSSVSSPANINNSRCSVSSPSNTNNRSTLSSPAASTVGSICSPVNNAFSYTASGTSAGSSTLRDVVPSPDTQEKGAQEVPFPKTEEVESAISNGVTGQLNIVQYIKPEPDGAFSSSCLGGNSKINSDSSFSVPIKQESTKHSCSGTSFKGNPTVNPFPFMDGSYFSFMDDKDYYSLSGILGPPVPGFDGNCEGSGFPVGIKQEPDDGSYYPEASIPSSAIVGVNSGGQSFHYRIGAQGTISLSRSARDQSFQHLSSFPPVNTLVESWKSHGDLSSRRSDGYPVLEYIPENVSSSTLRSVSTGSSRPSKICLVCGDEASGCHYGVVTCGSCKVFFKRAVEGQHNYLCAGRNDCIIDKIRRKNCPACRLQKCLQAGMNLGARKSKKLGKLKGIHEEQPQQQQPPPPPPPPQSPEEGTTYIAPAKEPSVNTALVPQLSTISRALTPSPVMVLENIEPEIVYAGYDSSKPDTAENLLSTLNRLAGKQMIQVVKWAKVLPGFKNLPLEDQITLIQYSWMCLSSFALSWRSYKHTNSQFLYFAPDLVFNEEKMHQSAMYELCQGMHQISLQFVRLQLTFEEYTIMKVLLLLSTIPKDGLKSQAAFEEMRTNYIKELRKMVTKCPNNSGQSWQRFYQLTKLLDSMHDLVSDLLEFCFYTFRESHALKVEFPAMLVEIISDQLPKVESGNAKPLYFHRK
test description: Antimineralocorticoid action by transactivation test (MDCK reporter cells)
Format: cell-based
Design: expressed in transfected cells; host or cells: MDCK cells
stated conditions: MDCK cells, with 1 nM aldosterone; read-out: Mineralocorticoid receptor Antagonism IC50
// pIC50: -log10(molar conc.)

compound	reported value
C[C@]12CC[C@H]3[C@@H](C[C@@H](CO)C4=CC(=O)CC[C@@H]43)[C@@H]1[C@@H]1C[C@@H]1[C@@]21C=CC(=O)O1	6.80
CC[C@]12CC[C@H]3[C@@H]([C@H]4C[C@H]4C4=C(Cl)C(=O)CC[C@@H]43)[C@@H]1[C@@H]1C[C@@H]1[C@@]21C=CC(=O)O1	6.02
C[C@]12CCC(=O)C=C1[C@@H]1C[C@@H]1[C@H]1[C@@H]3[C@@H]4C[C@@H]4[C@@]4(CCC(=O)O4)[C@@]3(C)CC[C@@H]12 [A, reference compound]	8.48
C[C@]12CC[C@H]3[C@@H](C=CC4=CC(=O)CC[C@@H]43)[C@@H]1[C@H]1C[C@H]1[C@@]21C=CC(=O)O1	7.92

Consider now this further compound.
// query Tell me the measured pIC50 of CC[C@]12CC[C@H]3[C@@H](C[C@@H](CO)C4=CC(=O)CC[C@@H]43)[C@@H]1[C@@H]1C[C@@H]1[C@@]21C=CC(=O)O1 , please.
// result 6.96

----------
assayed target: progesterone receptor (Homo sapiens)
Construct: made in house; host or cells: Hi5 insect cells (cytosol)
Sequence (P06401 whole entry, species assumed): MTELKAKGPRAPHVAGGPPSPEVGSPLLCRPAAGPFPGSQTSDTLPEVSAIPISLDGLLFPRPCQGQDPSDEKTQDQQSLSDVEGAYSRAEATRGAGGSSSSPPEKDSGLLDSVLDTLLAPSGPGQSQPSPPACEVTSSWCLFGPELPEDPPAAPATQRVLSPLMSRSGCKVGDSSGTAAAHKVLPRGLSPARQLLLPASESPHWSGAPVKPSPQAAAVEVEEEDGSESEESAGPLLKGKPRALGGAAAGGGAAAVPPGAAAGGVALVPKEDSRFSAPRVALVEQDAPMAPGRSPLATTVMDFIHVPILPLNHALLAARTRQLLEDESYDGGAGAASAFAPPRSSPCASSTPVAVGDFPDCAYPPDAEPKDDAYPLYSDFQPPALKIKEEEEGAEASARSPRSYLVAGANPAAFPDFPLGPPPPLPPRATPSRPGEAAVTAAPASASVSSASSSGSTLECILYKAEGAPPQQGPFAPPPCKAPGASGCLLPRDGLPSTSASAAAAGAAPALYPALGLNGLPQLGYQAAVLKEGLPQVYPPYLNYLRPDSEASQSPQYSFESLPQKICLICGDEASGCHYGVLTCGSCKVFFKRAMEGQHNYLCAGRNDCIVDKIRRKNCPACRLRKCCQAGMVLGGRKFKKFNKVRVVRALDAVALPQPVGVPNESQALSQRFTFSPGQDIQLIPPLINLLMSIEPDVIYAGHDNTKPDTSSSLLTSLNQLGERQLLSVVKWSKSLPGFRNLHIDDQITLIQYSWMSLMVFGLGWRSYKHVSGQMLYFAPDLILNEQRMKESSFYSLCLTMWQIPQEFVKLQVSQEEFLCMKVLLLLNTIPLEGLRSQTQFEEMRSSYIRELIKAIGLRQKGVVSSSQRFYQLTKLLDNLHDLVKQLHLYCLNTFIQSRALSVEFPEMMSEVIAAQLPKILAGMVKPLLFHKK
test description: Progesterone receptor binding test
stated conditions: displacement of 3H-progesterone, cytosol from PR-expressing insect cells (Hi5); read-out: Progesterone receptor (PR) IC50
Form field: pIC50 (one value per entry).
pIC50 (log units): -log10 of the concentration in mol/L.

# annotated cases, reported pIC50 shown
compound structure	assayed target	pIC50
C[C@]12CC[C@H]3[C@@H](C[C@@H](CO)C4=CC(=O)CC[C@@H]43)[C@@H]1[C@@H]1C[C@@H]1[C@@]21C=CC(=O)O1	progesterone receptor (Homo sapiens)	5.32
C[C@]12CC[C@H]3[C@@H](C=CC4=CC(=O)CC[C@@H]43)[C@@H]1[C@H]1C[C@H]1[C@@]21C=CC(=O)O1	progesterone receptor (Homo sapiens)	6.72

# evaluate next
// query If you can, please state the reported pIC50 value of CC[C@]12CC[C@H]3[C@@H]([C@H]4C[C@H]4C4=C(Cl)C(=O)CC[C@@H]43)[C@@H]1[C@@H]1C[C@@H]1[C@@]21C=CC(=O)O1 .
// result 6.13

----------
assayed target: androgen receptor (Homo sapiens, UniProt P10275)
Sequence (P10275 1-920): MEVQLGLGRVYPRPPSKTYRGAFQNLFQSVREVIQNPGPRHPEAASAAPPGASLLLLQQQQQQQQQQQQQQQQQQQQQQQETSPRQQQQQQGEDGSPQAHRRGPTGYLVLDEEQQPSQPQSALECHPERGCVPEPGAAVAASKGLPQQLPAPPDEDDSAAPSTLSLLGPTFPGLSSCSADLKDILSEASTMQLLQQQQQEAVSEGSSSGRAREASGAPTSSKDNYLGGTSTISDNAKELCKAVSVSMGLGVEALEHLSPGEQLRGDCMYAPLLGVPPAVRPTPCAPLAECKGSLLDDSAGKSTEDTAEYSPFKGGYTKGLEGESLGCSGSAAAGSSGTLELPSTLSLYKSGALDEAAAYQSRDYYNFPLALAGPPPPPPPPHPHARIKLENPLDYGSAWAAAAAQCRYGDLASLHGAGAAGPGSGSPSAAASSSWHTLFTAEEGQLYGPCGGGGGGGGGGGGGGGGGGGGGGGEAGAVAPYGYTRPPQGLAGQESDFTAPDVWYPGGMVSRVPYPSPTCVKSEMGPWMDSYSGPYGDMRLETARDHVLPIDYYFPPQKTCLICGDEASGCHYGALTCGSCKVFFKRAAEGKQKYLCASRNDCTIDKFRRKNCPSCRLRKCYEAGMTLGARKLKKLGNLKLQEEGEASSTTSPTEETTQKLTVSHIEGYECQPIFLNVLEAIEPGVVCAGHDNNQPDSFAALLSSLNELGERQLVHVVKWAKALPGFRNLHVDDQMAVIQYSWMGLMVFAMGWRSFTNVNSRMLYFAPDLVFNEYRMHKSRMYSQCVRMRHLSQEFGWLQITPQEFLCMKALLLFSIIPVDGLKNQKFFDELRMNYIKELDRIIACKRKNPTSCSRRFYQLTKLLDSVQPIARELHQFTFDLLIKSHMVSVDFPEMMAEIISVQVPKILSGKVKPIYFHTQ
test description: Androgenic/antiandrogenic action by transactivation test (PC3 reporter cells)
Format: cell-based
Parameters: expressed in transfected cells; host or cells: PC3 cells
stated conditions: PC-3, read-out: Androgen receptor Antagonism efficacy
measure: Emax (%)
Write the answer as a number in %, unit excluded.

Some compounds with known Emax results, for comparison:
compound	Emax, %
C=C[C@@H]1CC2=CC(=O)CC[C@@H]2[C@H]2CC[C@@]3(CC)[C@@H]([C@@H]4C[C@@H]4[C@@]34C=CC(=O)O4)[C@@H]21	5
C[C@@H]1CC2=CC(=O)CC[C@@H]2[C@H]2CC[C@@]3(C)[C@@H]([C@H]4C[C@H]4[C@@]34C=CC(=O)O4)[C@@H]21 [Example 14A]	21
CC[C@]12CC[C@H]3[C@@H](CCC4=CC(=O)CC[C@@H]43)[C@@H]1[C@@H]1C[C@@H]1[C@@]21C=CC(=O)O1	5
CC[C@]12CC[C@H]3[C@@H]([C@H]4C[C@H]4C4=CC(=O)CC[C@@H]43)[C@@H]1[C@@H]1C[C@@H]1[C@@]21C=CC(=O)O1	5

// query Can you look up the measured Emax of CC[C@]12CC[C@H]3[C@@H]([C@@H]4C[C@@H]4C4=CC(=O)CC[C@@H]43)[C@@H]1[C@@H]1C[C@@H]1[C@@]21C=CC(=O)O1 for me?
// result 5

----------
assayed target: UniProtKB P10275
test description: Androgen receptor binding test
Set-up: expressed in transfected cells
stated conditions: reference substance 3H-testosterone
measure: Androgen receptor Competition factor
Number, no unit, nothing else.

Some entries whose results are on file:
compound	reported value
C[C@@H]1CC2=CC(=O)CC[C@@H]2[C@H]2CC[C@@]3(C)[C@@H]([C@H]4C[C@H]4[C@@]34C=CC(=O)O4)[C@@H]21 [Example 14A]	2.3
C=C[C@@H]1CC2=CC(=O)CC[C@@H]2[C@H]2CC[C@@]3(C)[C@@H]([C@H]4C[C@H]4[C@@]34C=CC(=O)O4)[C@@H]21 [Example 16A]	2.6
CC[C@]12CC[C@H]3[C@H]([C@@H]1[C@@H]1C[C@@H]1[C@@]21C=CC(=O)O1)[C@H](C1CC1)CC1=CC(=O)CC[C@@H]13	5.2
C=C[C@@H]1CC2=CC(=O)CC[C@@H]2[C@H]2CC[C@@]3(CC)[C@@H]([C@@H]4C[C@@H]4[C@@]34C=CC(=O)O4)[C@@H]21	1.7

// query If you can, please state the reported Androgen receptor Competition factor value of C[C@]12CC[C@H]3[C@@H](CCC4=CC(=O)CC[C@@H]43)[C@@H]1[C@@H]1C[C@@H]1[C@@]21C=CC(=O)O1 .
// result 6.4

----------
assayed target: androgen receptor (Homo sapiens, UniProt P10275)
test description: Androgenic/antiandrogenic action by transactivation test (PC3 reporter cells)
Format: cell-based
Set-up: expressed in transfected cells; host or cells: PC3 cells
stated conditions: PC-3, read-out: Androgen receptor Agonism efficacy
measure: Emax (%)
Please give a number only; it is taken to be in %.

molecule	measure	reported value
CC[C@]12CC[C@H]3[C@H]([C@@H]1[C@@H]1C[C@@H]1[C@@]21C=CC(=O)O1)[C@H](C)CC1=CC(=O)CC[C@@H]13	Emax	97.5

// query Give Emax (androgen receptor (Homo sapiens, UniProt P10275)) of the following molecule: CC[C@]12CC[C@H]3[C@H]([C@@H]1[C@@H]1C[C@@H]1[C@@]21C=CC(=O)O1)[C@H](C1CC1)CC1=CC(=O)CC[C@@H]13
// result 62.6

// query Also CC[C@]12CC[C@H]3[C@@H]([C@@H]4C[C@@H]4C4=CC(=O)CC[C@@H]43)[C@@H]1[C@@H]1C[C@@H]1[C@@]21C=CC(=O)O1 , if possible.
// result 32.6

// query Now this one: CC[C@@H]1CC2=CC(=O)CC[C@@H]2[C@H]2CC[C@@]3(C)[C@@H]([C@@H]4C[C@@H]4[C@@]34C=CC(=O)O4)[C@H]12 [Example 24A]
// result 36.8

// query // next record CC[C@]12CC[C@H]3[C@@H](C[C@@H](CO)C4=CC(=O)CC[C@@H]43)[C@@H]1[C@@H]1C[C@@H]1[C@@]21C=CC(=O)O1
// result 17.9
